Tested on: 786-0 renal
Assay: NCI-60 one-dose screen, 48 h (100 = growth as untreated, 0 = no growth, -100 = all killed)
Conditions: 10 µM unless noted
This is part of a sample that, as a whole, favours compounds with a hit. Of some 83,000 tested, about 20% had one in any assay.
Listing of entries alongside the reported growth.
# output: bare number, implied unit %

Use these answered entries as a reference point.
Note to self: growth recorded for N#Cc1cnc2ccc(-c3cnc4n[nH]nc4c3)cc2c1N1CCc2cc(F)c(Cl)cc21 was 16.7

Note to self: growth recorded for Cc1ccc(-c2csc(N/N=C/c3cccs3)n2)cc1 was 97.5

Note to self: growth recorded for CC(Nc1c(C#N)cnc2ccc(-c3cncc(O)c3)cc12)c1ccccc1 (centres undefined) was -1.52

Note to self: growth recorded for O=S(=O)(Oc1ccc(-c2cn3ccoc3n2)cc1)C1CCCCC1 was 100

Next:
Note to self: growth recorded for C=C(C)[C@@H]1CC[C@]2(C(=O)N3CCN(C)CC3)CC[C@]3(C)[C@H](CC[C@@H]4[C@@]5(C)CC[C@H](OP(=O)(OCC)OCC)C(C)(C)[C@@H]5CC[C@]43C)[C@@H]12 was 70.3

Note to self: growth recorded for CN1CCN(Cc2ccc(NC(=O)c3cncc(C#Cc4cnc5ccc(OCC(F)F)nn45)c3)cc2C(F)(F)F)CC1 was -90.3

Note to self: growth recorded for CCCc1[nH]c(-c2cc(N)ccc2Cl)c2c1C(=O)CCCC2 was 91

Note to self: growth recorded for O=C(CSc1nnc(-c2ccc(Cl)cc2)n1-c1ccccc1)Nc1cccc(F)c1 was 0.989

Note to self: growth recorded for O=C(O)c1ccc(-n2c(=O)n(-c3cccc(C(F)(F)F)c3)c(=O)c3cc(-c4ccc(F)cc4F)ccc32)cc1 was 22.3

---

System: HT29 colon
Assay: NCI-60 one-dose screen, 48 h (100 = growth as untreated, 0 = no growth, -100 = all killed)
Conditions: 10 µM unless noted
Protocol: Growth inhibition of the HT29 human tumor cell line is measured as a screen for anti-cancer activity. Cells are grown in 96 well plates and exposed to the test compound for 48 hours. Compounds are tested at a single concentration, which is 10^-5 M for most compounds. The reported endpoint is percent growth (GI% or GIPRCNT), where numbers from 0 - 100% represent growth inhibition, and numbers from -100% - 0 represent cell death. For example, a value of 40 represents 60% growth inhibition. […]
The panel holds about 83,000 compounds, 20% with a hit somewhere; the sample as a whole holds those more often. The source made the active and inactive calls. How the source made its calls: active means growth percent below 10; inactive means the rest.
MEASURED_ATTRIBUTE: growth

Use these answered entries as a reference point.
Note to self: growth recorded for O=C(N/N=C/c1cc2ccccc2nc1Cl)c1cc(-c2nc3ccccc3[nH]2)nc2ccccc12 was 90.3% (inactive)

Note to self: growth recorded for CCCCN1C(=O)/C(=c2\sc3n(c2=O)C2C(NN=3)N(CC)C(=O)N2CC)c2cccc(C)c21 (centres undefined) was 16.5% (inactive)

Next:
Note to self: growth recorded for C=C(C)[C@@H]1CC[C@]2(COP(=O)(OCC)OCC)CC[C@]3(C)[C@H](CC[C@@H]4[C@@]5(C)CC[C@H](OP(=O)(OCC)OCC)C(C)(C)[C@@H]5CC[C@]43C)[C@@H]12 was 35.2% (inactive)

Note to self: growth recorded for COc1ccc(/C=N/NC(=O)c2c(N)nn(C)c2Nc2ccccc2)cc1 was 18.6% (inactive)

---

Tested on: SF-295 CNS
Experiment: NCI-60 one-dose screen, 48 h (100 = growth as untreated, 0 = no growth, -100 = all killed)
Details: 10 µM unless noted
Compounds without any hit were thinned out: in the full panel of roughly 83,000, 20% have a hit.
Listing of entries alongside the reported growth.
# output: bare number, implied unit %

Use these answered entries as a reference point.
Note to self: growth recorded for COCCOc1ccc2ncc(C#Cc3cncc(C(=O)Nc4ccc(CN5CCN(C)CC5)c(C(F)(F)F)c4)c3)n2n1 was 31

Note to self: growth recorded for COC(=O)N1CCN(CCNCc2ccc(NC(=O)c3ccc(C)c(C#Cc4cnc5cccnn45)c3)cc2C(F)(F)F)CC1 was -25.1

Note to self: growth recorded for COc1ccc(-c2nc(C#N)c(N3CCC(S(=O)(=O)N4CCOCC4)CC3)o2)cc1 was 102

Note to self: growth recorded for Cc1cc(=O)oc2cc(OCCCOc3ccc(/C=C/C(=O)Nc4ccc(Br)cc4)cc3)ccc12 was 95.1

Note to self: growth recorded for CC(Nc1ncnc2ccc(-c3cnc4cnccn34)cc12)c1ccccc1 (stereo not drawn) was 50.5

Note to self: growth recorded for CC(C)Sc1nc(-c2ccccc2)c(C#N)c(N2CCOCC2)n1 was 51.1

Note to self: growth recorded for CCCCSC1=C(Cl)CN(c2ccccc2)C1=O was 98.8

Note to self: growth recorded for CN1CCN(Cc2ccc(NC(=O)c3cncc(C#Cc4cnc5ccc(OCC6COC6)nn45)c3)cc2C(F)(F)F)CC1 was -93.7

Note to self: growth recorded for Fc1cccc(Cl)c1/C=N/Nc1nc(N/N=C/c2c(F)cccc2Cl)nc(N2CCCCC2)n1 was 2.57

Note to self: growth recorded for CN1CCN(CCCCCC(=O)Nc2nc(-c3cccc(NS(=O)(=O)c4cccc5c(N(C)C)cccc45)c3)cs2)CC1 was 35.6

Next:
Note to self: growth recorded for Cc1ccc(S(=O)(=O)NCCCNc2nc(Nc3ccc(N4CCN(C)CC4)cc3)nc3ccsc23)cc1 was -41.6

Note to self: growth recorded for Cc1ccsc1[C@H]1c2[nH]c3ccccc3c2C[C@H]2C(=O)N(CCCCCCC(=O)NO)CC(=O)N12 was 95.1

Note to self: growth recorded for COC(=O)c1cccc(NC2=C(Cl)C(=O)C(C)=C(C)C2=O)c1 was 108

Note to self: growth recorded for CN1CCN(c2ccc(Nc3nc(NCCCNS(=O)(=O)c4ccc(C(F)(F)F)cc4)c4sccc4n3)cc2)CC1 was -74.6

Note to self: growth recorded for Cc1ccc(-c2nc(SCC(=O)c3ccccc3)nc(Nc3ccc(S(N)(=O)=O)cc3)c2C#N)cc1 was 36.7

Note to self: growth recorded for O=C(/C=C/c1cc(Cl)ccc1Cl)Nc1ncc(Cc2ccc(Cl)cc2)s1 was -2.3

Note to self: growth recorded for C#C[C@]1(O)CC[C@H]2[C@@H]3CC=C4c5sc(N(C)c6ccccc6)nc5CC[C@]4(C)[C@H]3CC[C@@]21C was 68.8

Note to self: growth recorded for CC(C)(C)c1cc(NC(=O)Nc2ccc(-c3cn4c5c(sc4n3)CCc3cn(CCCN4CCCCC4)cc3-5)cc2)no1 was -53.6

---

Test system: UO-31 renal
Assay: NCI-60 one-dose screen, 48 h (100 = growth as untreated, 0 = no growth, -100 = all killed)
Conditions: 10 µM unless noted
The panel holds about 83,000 compounds, 20% with a hit somewhere; the sample as a whole holds those more often.
// map growth to label using Low = under 70%, Mid = from 70% up to 90%, High = 90% and over

Take a look at these entries with their results.
Ask | Form field 'band' for O=C(CSc1nc2ccccc2c(=O)n1-c1ccccc1)N/N=C/c1ccc(Oc2ccc(Cl)cc2)cc1
Reply | Mid

Ask | Form field 'band' for O=C1[C@@H]2Cc3c([nH]c4ccccc34)[C@@H](c3ccc(Cl)cc3)N2C(=O)CN1C1CCN(Cc2c(F)cccc2F)CC1
Reply | Low

Ask | Form field 'band' for O=C(/C=C/c1cccc(F)c1)c1cccc(OCCCCOc2cccc(C(=O)/C=C/c3cccc(F)c3)c2)c1
Reply | High

Ask | Form field 'band' for CCc1nnc(NC(=O)c2cc(-c3ccc(Cl)cc3Cl)oc2C)s1
Reply | Mid

Ask | Form field 'band' for CN(C)c1ccc(/C=N/Nc2nc(N/N=C/c3ccc(N(C)C)cc3)nc(N3CCCCC3)n2)cc1
Reply | Mid

Attention now shifts to the item below.
Ask | Form field 'band' for CN1CCN(c2ccc(Nc3nc(NCCCNS(=O)(=O)c4ccc(Cl)cc4)c4sccc4n3)cc2)CC1
Reply | Low

---

System: CAKI-1 renal
Experiment: NCI-60 one-dose screen, 48 h
Settings: 10 µM unless noted
This is part of a sample that, as a whole, favours compounds with a hit. Of some 83,000 tested, about 20% had one in any assay. Activity calls are given as the source filed them. The calls were made as follows: active = growth percent below 10; inactive = the rest.
Reply using exactly one outcome from active, inactive

Ask | // outcome(item) with item = CC1(C)CC[C@]23CC[C@]4(C)[C@H](CC[C@@H]5[C@@]6(C)CC[C@H](N)C(C)(C)[C@@H]6CC[C@]54C)[C@H]2[C@H]1OC3
Reply | active

Ask | // outcome(item) with item = CCCCSC1=C(Cl)CN(c2ccc(Cl)cc2)C1=O
Reply | inactive

Ask | // outcome(item) with item = CNC(=O)c1cc(-n2ccc3cc(NC(=O)Nc4ccc(N5CCN(C)CC5)c(C(F)(F)F)c4)ccc32)ccn1
Reply | inactive

Ask | // outcome(item) with item = CN1CCN(c2ccc(Nc3nc(NCCNC(=O)c4ccccc4)c4sccc4n3)cc2)CC1
Reply | inactive

Ask | // outcome(item) with item = CN1CCN(Cc2ccc(NC(=O)c3cncc(C#Cc4cnc5ccc(N6CCOCC6)nn45)c3)cc2C(F)(F)F)CC1
Reply | active

Ask | // outcome(item) with item = N#C/C(=C\c1ccc(-c2ccc(Cl)cc2)o1)C(=O)Nc1ncc(Cc2ccc(Br)cc2)s1
Reply | active

Ask | // outcome(item) with item = COc1cc(-c2nc(-c3ccccc3)[nH]c2-c2ccnc(NCCCNS(=O)(=O)c3ccc(C)cc3)n2)ccc1F
Reply | inactive

Ask | // outcome(item) with item = CC(O)c1cccc(/C(N)=N/C(N)=N/c2nc3ccccc3s2)c1 (centres undefined)
Reply | inactive

Attention now shifts to the item below.
Ask | // outcome(item) with item = Cc1ccc(-c2cc3nc(C(Cl)Cl)nc(-c4ccc(S(=O)(=O)N(C)C)cc4)n3n2)cc1
Reply | inactive
